# maps each entry to its Minimum Bactericidal Concentration
tested on: Escherichia coli (ML35); type: cell-based; conditions: E. coli ML35; 1 × 10^7 CFU/mL; 1% TSB, 10 mM Hepes; 10, 20 and 30 μM peptide, 1 h at 37 °C; serial dilution, 18 h at 37 °C in complete TSB; turbidity; duplicate
No end group written: not given here.
Answer format: numeric, µM implied, no suffix.

RRRRLRRRRRR-NH2 [L5]    18
RRRRRRARRRR-NH2 [A7]    20
RRRRRRRPRRR-NH2 [P8]    30
RRRRRRRRLRR-NH2 [L9]    8

Looking up RRRARRRRRRR-NH2 [A4] , I see its Minimum Bactericidal Concentration listed as 26

Kindly note the recorded Minimum Bactericidal Concentration for RRPRRRRRRRR-NH2 [P3] , which is 28

Looking up RRRRRRPRRRR-NH2 [P7] , I found its Minimum Bactericidal Concentration recorded as 10

###

tested on: Staphylococcus aureus (ATCC 25923); assay type: cell-based; details: S. aureus ATCC 25923; 1 × 10^7 CFU/mL; 1% TSB, 10 mM Hepes; 10, 20 and 30 μM peptide, 1 h at 37 °C; serial dilution, 18 h at 37 °C in complete TSB; turbidity; duplicate
No end group written: not given here.
quantity.measured: Minimum Bactericidal Concentration (µM)
Quick note: give the figure in µM, leave out the unit.

Reference set (8 entries):
RRRRRRRWRRR-NH2 [W8]    20
RRRWRRRRRRR-NH2 [W4]    20
RRPRRRRRRRR-NH2 [P3]    8
RRRRRRRRWRR-NH2 [W9]    10
RRLRRRRRRRR-NH2 [L3]    9
RRRLRRRRRRR-NH2 [L4]    9
RRRRRRRRRAR-NH2 [A10]    6
RRRRRRRPRRR-NH2 [P8]    9

The recorded Minimum Bactericidal Concentration for entry RRRRRLRRRRR-NH2 [L6] equals 28

Short answer for RRRRRWRRRRR-NH2 [W6] : Minimum Bactericidal Concentration was 20

// Minimum Bactericidal Concentration lookup, substance = RRRRRRPRRRR-NH2 [P7] , result: 7

The measured Minimum Bactericidal Concentration associated with RRWRRRRRRRR-NH2 [W3] reads 20

The substance identified as RWRRRRRRRRR-NH2 [W2] registered its Minimum Bactericidal Concentration at 30

Measured Minimum Bactericidal Concentration, RRRRPRRRRRR-NH2 [P5] : 8

Per the records, this substance ( RLRRRRRRRRR-NH2 [L2] ) has Minimum Bactericidal Concentration equal to 12

Short answer for RRRRRRRRPRR-NH2 [P9] : Minimum Bactericidal Concentration was 10

Lab book: Minimum Bactericidal Concentration of RRRRLRRRRRR-NH2 [L5] noted as 8

For reference, reported Minimum Bactericidal Concentration for RRRRRRWRRRR-NH2 [W7] stands at 8

// field: Minimum Bactericidal Concentration; key: RRRRRRRRRPR-NH2 [P10] ; value = 30

Sample RRRRWRRRRRR-NH2 [W5] ; Minimum Bactericidal Concentration observed: 10

###

Each item that follows carries a reported Minimum Bactericidal Concentration.
Test system: Escherichia coli (ML35)
Type: cell-based
Conditions: E. coli ML35; 1 × 10^7 CFU/mL; 1% TSB, 10 mM Hepes; 10, 20 and 30 μM peptide, 1 h at 37 °C; serial dilution, 18 h at 37 °C in complete TSB; turbidity; duplicate
Procedure: The strains used, Staphylococcus aureus (ATCC 25923) and Escherichia coli (ML35), were obtained from the Public Health Institute of Chile (ISP). To determine the antibacterial activity of the peptides, a microplate dilution test was performed. […] Finally, a serial dilution was performed and incubated for 18 h at 37 °C in complete TSB, and the minimum bactericidal concentration (MCB) was determined depending on the turbidity of the plate. […]
No end group written: not given here.

RRRPRRRRRRR-NH2 [P4]    >30 µM
RRRRRLRRRRR-NH2 [L6]    >30 µM

Now consider a different substance.
Minimum Bactericidal Concentration recorded for this substance, RRWRRRRRRRR-NH2 [W3] , is >30 µM
